System: S. pneumoniae D39V;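 note: first quartile when negative (synergy) and third quartile when positive (antagonism)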
assay-details: Bliss interaction score (quartile over a dose matrix) (fitness difference); higher = more antagonism (negative = synergy)
# label = yes if Bliss interaction score >= 0.06 else no

Answered examples (3):
molecule	class-label
CO[C@@]12[C@H](COC(N)=O)C3=C(C(=O)C(C)=C(N)C3=O)N1C[C@@H]1N[C@@H]12 [MitomycinC] + CN[C@@H]1[C@H](O)[C@H](NC)[C@H]2O[C@@]3(O)C(=O)C[C@@H](C)O[C@H]3O[C@@H]2[C@H]1O [Spectinomycin]	no
CO[C@@H]1[C@@H](OC(N)=O)[C@@H](O)[C@H](Oc2ccc3c(O)c(NC(=O)c4ccc(O)c(CC=C(C)C)c4)c(=O)oc3c2C)OC1(C)C [Novobiocin] + COc1cc(Cc2cnc(N)nc2N)cc(OC)c1OC [Trimethoprim]	yes
CC(=O)NC[C@H]1CN(c2ccc(N3CCOCC3)c(F)c2)C(=O)O1 [Linezolid] + COc1cc(Cc2cnc(N)nc2N)cc(OC)c1OC [Trimethoprim]	no

Next molecule, please.
Please indicate if the recorded Bliss interaction score for CO[C@H]1/C=C/O[C@@]2(C)Oc3c(C)c(O)c4c(O)c(c(/C=N/N5CCN(C)CC5)c(O)c4c3C2=O)NC(=O)/C(C)=C\C=C\[C@H](C)[C@H](O)[C@@H](C)[C@@H](O)[C@@H](C)[C@H](OC(C)=O)[C@@H]1C [Rifampicin] + Cn1nnc(-c2ccc(-c3ccc(N4C[C@H](CO)OC4=O)cc3F)cn2)n1 [Tedizolid] meets or exceeds 0.06.
yes
